- System: ProfilerPro Kinase Selectivity Assay Kit kinases
- Assay type: biochemical
- measurement.conditions: AMPK; 1 μM compound concentration
observed.property: POC (Percent of control) AMPK (POC)
Form entry: value (POC) — number only.

Solved cases below.
- molecule: "Cc1nc(N)nc(-c2cccnc2Nc2cccc(O)c2)n1 [Example 23]"
  value.measured: 98
- molecule: "Cc1nc(N)cc(-c2cccnc2Nc2cccc3[nH]ncc23)n1 [Example 27]"
  value.measured: 83
- molecule: "Cc1nc(-c2cccnc2Nc2cccc3[nH]ncc23)c2nc[nH]c2n1 [Example 57]"
  value.measured: 92
- molecule: "Cc1cnc(Nc2cccc3[nH]ncc23)c(-c2nc(C)nc(N)n2)c1 [Example 47]"
  value.measured: 87

// below: POC (Percent of control) AMPK requested for another molecule
# input molecule: c1cnc(Nc2cccc3[nH]ccc23)c(-c2ncnc3[nH]cnc23)c1 [Example 19] ; wanted: its POC (Percent of control) AMPK
57

----------
- Test system: phosphorylation of Akt at Serine 473 in U87 MG cells
- test.details: cells
- measurement.conditions: Homo sapiens, U-87 MG, 2 h, read-out: U87Cell IC50, pAkt (Ser 473), U87 MG cells, two hours with compound
As shown below, each of these compounds has a reported pIC50 value.
pIC50 (log units): -log10 of the concentration in mol/L.

Here is how some compounds turned out for pIC50.
- compound: "Cc1nc(-c2cc(Cl)cnc2Nc2cccc3[nH]ncc23)c2nc[nH]c2n1 [Example 61]"
  pIC50: 5.44
- compound: "COc1ccc(Nc2ncc(N3CCC(O)C3)cc2-c2nc(C)nc3[nH]cnc23)cn1 (centres unmarked) [Example 98]"
  pIC50: 6.53
- compound: "COc1ncc(Nc2ncccc2-c2nc(C)nc(N)n2)cc1Cl [Example 173]"
  pIC50: 6.45

Which value of pIC50 has been reported for COc1ncc(Nc2ncc(C(C)(C)N)cc2-c2nc(C)nc(N)n2)cc1F [Example 278] in the records?
7.62

Entry COCCOc1cnc(Nc2cnc(OC)c(NS(C)(=O)=O)c2)c(-c2nc(C)nc(N)n2)c1 [Example 336] has what pIC50?
7.44

Which pIC50 is listed for COc1ccc(Nc2nc(NC3CCCC3)ncc2-c2nc(C)nc(N)n2)cn1 [Example 126] ?
6.62

----------
- tested.system: ProfilerPro Kinase Selectivity Assay Kit kinases (Homo sapiens, UniProt P06241)
- Sequence (P06241 2-537 limits assumed): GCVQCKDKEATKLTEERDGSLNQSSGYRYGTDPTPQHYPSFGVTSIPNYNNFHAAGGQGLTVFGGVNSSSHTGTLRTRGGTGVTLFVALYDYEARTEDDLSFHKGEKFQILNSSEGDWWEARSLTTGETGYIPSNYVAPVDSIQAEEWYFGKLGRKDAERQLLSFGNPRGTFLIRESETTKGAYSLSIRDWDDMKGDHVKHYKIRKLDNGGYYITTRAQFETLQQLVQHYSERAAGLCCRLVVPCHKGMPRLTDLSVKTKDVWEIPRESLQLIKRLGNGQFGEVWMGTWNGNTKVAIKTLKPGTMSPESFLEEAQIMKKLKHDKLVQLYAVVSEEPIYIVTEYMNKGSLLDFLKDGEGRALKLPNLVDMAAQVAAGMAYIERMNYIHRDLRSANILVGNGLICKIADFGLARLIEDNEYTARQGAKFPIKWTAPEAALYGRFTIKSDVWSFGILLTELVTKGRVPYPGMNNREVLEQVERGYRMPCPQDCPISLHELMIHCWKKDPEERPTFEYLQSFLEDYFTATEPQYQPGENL
- Assay type: biochemical
- measurement.conditions: FYN; 1 μM compound concentration
observed.property: POC (Percent of control) FYN (POC)
The reply should contain only the number, in POC.

- entry.smiles: "COc1ccc(Nc2ncc(Cc3ccc(S(C)(=O)=O)cc3)cc2-c2nc(C)nc3[nH]cnc23)cn1"
  POC (Percent of control) FYN [POC]: 97

Can you look up the measured POC (Percent of control) FYN of `Cc1nc(N)nc(-c2cc(CN3CCN(S(C)(=O)=O)CC3)cnc2Nc2cccc(O)c2)n1` for me?
97

What does the record list as POC (Percent of control) FYN for `Cc1cnc(Nc2cccc3[nH]ncc23)c(-c2nc(C)nc(N)n2)c1` ?
87

Give the measured POC (Percent of control) FYN of `Cc1nc(N)cc(-c2cccnc2Nc2cccc3[nH]ncc23)n1` .
98

# input compound: `c1cnc(Nc2cccc3[nH]ncc23)c(-c2ncnc3[nH]cnc23)c1` ; wanted: its POC (Percent of control) FYN
86

----------
- tested.system: ProfilerPro Kinase Selectivity Assay Kit kinases (Homo sapiens)
- Type: biochemical
- measurement.conditions: DYRK1a; 1 μM compound concentration
Each entry below lists one item and its recorded POC (Percent of control) DYRK1a value.
Numbers only; they are read as POC.

The following compounds have reported results that may help.
- entry.smiles: "COc1ccc(Nc2ncccc2-c2nc(C)nc3[nH]cnc23)cn1"
  tested.system: "ProfilerPro Kinase Selectivity Assay Kit kinases (Homo sapiens)"
  units: "POC"
  POC (Percent of control) DYRK1a: 93
- entry.smiles: "COc1ccc(Nc2ncc(CN3CCN(C(C)=O)CC3)cc2-c2nc(C)nc3[nH]cnc23)cn1"
  tested.system: "ProfilerPro Kinase Selectivity Assay Kit kinases (Homo sapiens)"
  units: "POC"
  POC (Percent of control) DYRK1a: 88
- entry.smiles: "Cc1nc(N)nc(-c2cccnc2Nc2cccc3[nH]ccc23)n1"
  tested.system: "ProfilerPro Kinase Selectivity Assay Kit kinases (Homo sapiens)"
  units: "POC"
  POC (Percent of control) DYRK1a: 96
- entry.smiles: "Cc1nc(N)nc(-c2cccnc2Nc2cccc(O)c2)n1"
  tested.system: "ProfilerPro Kinase Selectivity Assay Kit kinases (Homo sapiens)"
  units: "POC"
  POC (Percent of control) DYRK1a: 93
- entry.smiles: "COc1ccc(Nc2ncc(Cc3ccc(S(C)(=O)=O)cc3)cc2-c2nc(C)nc3[nH]cnc23)cn1"
  tested.system: "ProfilerPro Kinase Selectivity Assay Kit kinases (Homo sapiens)"
  units: "POC"
  POC (Percent of control) DYRK1a: 83
- entry.smiles: "Cc1nc(N)cc(-c2cccnc2Nc2cccc3[nH]ncc23)n1"
  tested.system: "ProfilerPro Kinase Selectivity Assay Kit kinases (Homo sapiens)"
  units: "POC"
  POC (Percent of control) DYRK1a: 92

Consider the compound `c1cnc(Nc2cccc3[nH]ccc23)c(-c2ncnc3[nH]cnc23)c1` and give its measured POC (Percent of control) DYRK1a.
66

Would you kindly share the measured POC (Percent of control) DYRK1a for `c1cnc(Nc2cccc3[nH]ncc23)c(-c2ncnc3[nH]cnc23)c1` ?
59

Given the compound `CCc1cnc(Nc2ccc(OC)nc2)c(-c2nc(C)nc3[nH]cnc23)c1` , what is its reported POC (Percent of control) DYRK1a?
100

Given the entry `COc1ccc(Nc2ncccc2-c2ncnc3[nH]cnc23)cn1` , report its measured POC (Percent of control) DYRK1a.
102

Given the compound `Cc1cnc(Nc2cccc3[nH]ccc23)c(-c2nc(C)nc(N)n2)c1` , what is its reported POC (Percent of control) DYRK1a?
96

Suppose we examine the compound `Cc1cnc(Nc2cccc3[nH]ncc23)c(-c2nc(C)nc(N)n2)c1` ; what POC (Percent of control) DYRK1a value has been reported?
82

Reported POC (Percent of control) DYRK1a, compound `Cc1nc(N)nc(-c2cc(CN3CCN(S(C)(=O)=O)CC3)cnc2Nc2cccc(O)c2)n1` : ____
93

Given the compound `Cc1nc(-c2cccnc2Nc2cccc3[nH]ncc23)c2nc[nH]c2n1` , what is its reported POC (Percent of control) DYRK1a?
91

----------
- tested.system: ProfilerPro Kinase Selectivity Assay Kit kinases (Homo sapiens, UniProt Q13976)
- Sequence (Q13976 2-671 limits assumed): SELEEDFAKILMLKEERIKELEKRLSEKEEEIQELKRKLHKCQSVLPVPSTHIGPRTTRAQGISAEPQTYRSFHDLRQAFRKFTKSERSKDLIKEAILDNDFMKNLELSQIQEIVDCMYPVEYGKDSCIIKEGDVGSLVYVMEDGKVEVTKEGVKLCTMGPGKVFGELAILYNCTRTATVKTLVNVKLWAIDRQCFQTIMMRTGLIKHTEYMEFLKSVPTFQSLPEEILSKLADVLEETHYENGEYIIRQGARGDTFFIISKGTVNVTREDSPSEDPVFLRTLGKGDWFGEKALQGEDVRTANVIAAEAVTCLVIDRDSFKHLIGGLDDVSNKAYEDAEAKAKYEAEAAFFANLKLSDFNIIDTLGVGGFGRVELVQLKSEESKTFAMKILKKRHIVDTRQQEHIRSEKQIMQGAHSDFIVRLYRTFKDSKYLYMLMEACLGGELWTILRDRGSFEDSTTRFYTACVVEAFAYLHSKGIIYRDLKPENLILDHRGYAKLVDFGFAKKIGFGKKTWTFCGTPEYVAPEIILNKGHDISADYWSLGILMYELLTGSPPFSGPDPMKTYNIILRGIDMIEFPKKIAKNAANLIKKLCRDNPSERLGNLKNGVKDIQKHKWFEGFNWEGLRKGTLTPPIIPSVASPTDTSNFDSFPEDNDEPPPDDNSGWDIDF
- Format: biochemical
- measurement.conditions: PKGa2; 1 μM compound concentration
observed.property: POC (Percent of control) PKGa2 (POC)
All answers are understood in POC, so give the number only.

Worked examples follow.
- compound: "Cc1nc(N)cc(-c2cccnc2Nc2cccc3[nH]ncc23)n1 [Example 27]"
  tested.system: "ProfilerPro Kinase Selectivity Assay Kit kinases (Homo sapiens, UniProt Q13976)"
  units: "POC"
  POC (Percent of control) PKGa2: 90
- compound: "Cc1nc(N)nc(-c2cccnc2Nc2cccc3[nH]ccc23)n1 [Example 22]"
  tested.system: "ProfilerPro Kinase Selectivity Assay Kit kinases (Homo sapiens, UniProt Q13976)"
  units: "POC"
  POC (Percent of control) PKGa2: 93
- compound: "Cc1nc(N)nc(-c2cccnc2Nc2cccc(O)c2)n1 [Example 23]"
  tested.system: "ProfilerPro Kinase Selectivity Assay Kit kinases (Homo sapiens, UniProt Q13976)"
  units: "POC"
  POC (Percent of control) PKGa2: 87
- compound: "CCc1cnc(Nc2ccc(OC)nc2)c(-c2nc(C)nc3[nH]cnc23)c1 [Example 74]"
  tested.system: "ProfilerPro Kinase Selectivity Assay Kit kinases (Homo sapiens, UniProt Q13976)"
  units: "POC"
  POC (Percent of control) PKGa2: 92
- compound: "c1cnc(Nc2cccc3[nH]ncc23)c(-c2ncnc3[nH]cnc23)c1 [Example 18]"
  tested.system: "ProfilerPro Kinase Selectivity Assay Kit kinases (Homo sapiens, UniProt Q13976)"
  units: "POC"
  POC (Percent of control) PKGa2: 90
- compound: "Cc1nc(-c2cccnc2Nc2cccc3[nH]ncc23)c2nc[nH]c2n1 [Example 57]"
  tested.system: "ProfilerPro Kinase Selectivity Assay Kit kinases (Homo sapiens, UniProt Q13976)"
  units: "POC"
  POC (Percent of control) PKGa2: 98

# input compound: Cc1cnc(Nc2cccc3[nH]ncc23)c(-c2nc(C)nc(N)n2)c1 [Example 47] ; wanted: its POC (Percent of control) PKGa2
80

Please report the recorded POC (Percent of control) PKGa2 for c1cnc(Nc2cccc3[nH]ccc23)c(-c2ncnc3[nH]cnc23)c1 [Example 19] .
93

Look at this compound and give its reported POC (Percent of control) PKGa2. COc1ccc(Nc2ncccc2-c2ncnc3[nH]cnc23)cn1 [Example 20]
98
